Measured ratio, pH 6.0/7.4 of individual entries
# ASSAY TARGET: T1, human Ror2 (human, UniProt Q01974 34-403, limits assumed)
# T1 construct: also called hROR2; receptor tyrosine kinase-like orphan receptor 2
# T1 sequence (Q01974 34-403 limits assumed): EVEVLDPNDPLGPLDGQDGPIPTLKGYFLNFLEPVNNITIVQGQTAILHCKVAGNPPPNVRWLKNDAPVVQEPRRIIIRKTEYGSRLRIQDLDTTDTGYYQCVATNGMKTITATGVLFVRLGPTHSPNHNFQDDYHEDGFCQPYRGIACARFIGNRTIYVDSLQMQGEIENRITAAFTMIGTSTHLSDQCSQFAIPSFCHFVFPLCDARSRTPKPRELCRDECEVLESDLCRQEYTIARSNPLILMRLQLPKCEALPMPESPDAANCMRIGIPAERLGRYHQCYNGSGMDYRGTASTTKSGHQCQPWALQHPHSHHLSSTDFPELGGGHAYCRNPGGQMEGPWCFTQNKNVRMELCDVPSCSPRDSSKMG
# RUN DESCRIPTION: ELISA, human Ror2; ratio of signal at pH 6.0 to pH 7.4
MEASURED ATTRIBUTE: ratio, pH 6.0/7.4

binder="HC-A097I (antibody, V domains shown) VH: EVQLQQSGPELVKPGASVKISCKTSGYTFTEYTMHWMKQSHRKSLEWIGGINTNNGGTGYNQKFKGKATLTVDKSSSTAYMELRSLTSEDSAVYFCIRGSLYSYGNSYFDYWGQGTLVTVSS VL: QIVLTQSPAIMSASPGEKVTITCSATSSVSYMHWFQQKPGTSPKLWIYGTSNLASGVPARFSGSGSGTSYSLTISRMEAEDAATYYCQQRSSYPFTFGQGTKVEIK" measured_value=1.89
binder="HC-R098Q (antibody, V domains shown) VH: EVQLQQSGPELVKPGASVKISCKTSGYTFTEYTMHWMKQSHRKSLEWIGGINTNNGGTGYNQKFKGKATLTVDKSSSTAYMELRSLTSEDSAVYFCAQGSLYSYGNSYFDYWGQGTLVTVSS VL: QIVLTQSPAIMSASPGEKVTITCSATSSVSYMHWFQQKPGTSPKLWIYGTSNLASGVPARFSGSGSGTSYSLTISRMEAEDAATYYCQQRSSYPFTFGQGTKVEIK" measured_value=2.89
binder="HC-M034D (antibody, V domains shown) VH: EVQLQQSGPELVKPGASVKISCKTSGYTFTEYTDHWMKQSHRKSLEWIGGINTNNGGTGYNQKFKGKATLTVDKSSSTAYMELRSLTSEDSAVYFCARGSLYSYGNSYFDYWGQGTLVTVSS VL: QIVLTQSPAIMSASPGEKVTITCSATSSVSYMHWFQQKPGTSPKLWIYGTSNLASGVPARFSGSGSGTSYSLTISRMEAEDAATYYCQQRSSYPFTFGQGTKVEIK" measured_value=5.9
binder="HC-G050S (antibody, V domains shown) VH: EVQLQQSGPELVKPGASVKISCKTSGYTFTEYTMHWMKQSHRKSLEWIGSINTNNGGTGYNQKFKGKATLTVDKSSSTAYMELRSLTSEDSAVYFCARGSLYSYGNSYFDYWGQGTLVTVSS VL: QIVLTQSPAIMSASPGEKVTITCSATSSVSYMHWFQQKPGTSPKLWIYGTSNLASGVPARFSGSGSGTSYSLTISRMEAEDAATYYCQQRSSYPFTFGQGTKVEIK" measured_value=2.6
binder="HC-G099E (antibody, V domains shown) VH: EVQLQQSGPELVKPGASVKISCKTSGYTFTEYTMHWMKQSHRKSLEWIGGINTNNGGTGYNQKFKGKATLTVDKSSSTAYMELRSLTSEDSAVYFCARESLYSYGNSYFDYWGQGTLVTVSS VL: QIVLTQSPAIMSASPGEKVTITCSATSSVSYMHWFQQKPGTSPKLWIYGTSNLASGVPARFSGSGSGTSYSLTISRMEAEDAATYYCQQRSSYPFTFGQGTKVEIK" measured_value=1.46

Recorded values, source patent US20200002414A1.
